target: recombinant perforin (UniProt P10820); assay type: cell-based; settings: read-out: Jurkat IC50; recombinant perforin pre-incubated 30 min with compound; 51Cr-labelled Jurkat cells, 0.1% BSA, 37° C. 4 hours
Sequence (P10820 whole entry): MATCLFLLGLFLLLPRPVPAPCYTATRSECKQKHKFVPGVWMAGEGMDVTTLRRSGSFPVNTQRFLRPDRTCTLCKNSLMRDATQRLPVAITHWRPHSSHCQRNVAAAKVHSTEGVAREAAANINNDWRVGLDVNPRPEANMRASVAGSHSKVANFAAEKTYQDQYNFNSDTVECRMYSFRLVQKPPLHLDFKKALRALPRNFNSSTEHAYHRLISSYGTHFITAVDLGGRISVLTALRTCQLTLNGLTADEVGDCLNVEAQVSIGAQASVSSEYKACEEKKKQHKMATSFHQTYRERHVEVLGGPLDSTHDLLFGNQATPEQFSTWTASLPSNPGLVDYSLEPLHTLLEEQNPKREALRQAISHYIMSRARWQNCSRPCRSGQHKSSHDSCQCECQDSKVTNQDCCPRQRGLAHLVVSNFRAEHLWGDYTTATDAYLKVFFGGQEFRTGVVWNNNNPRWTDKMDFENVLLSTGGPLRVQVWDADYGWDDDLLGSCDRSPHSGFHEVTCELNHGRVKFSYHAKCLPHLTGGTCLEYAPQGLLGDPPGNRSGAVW
quantityMeasured: pIC50
Note: pIC50 values are expressed as the negative base-10 logarithm of concentration in M.

Recorded results for 7 molecules are shown here.
> print(dat)
                                   compound                            assaytarget  measvalue
1  CS(=O)(=O)Nc1ccc(-c2ccc(/C=C3/NC(=S)NC3=O)s2)cc1  recombinant perforin (UniProt P10820)       5.11
2  CCOC(=O)N1Cc2cc(-c3ccc(/C=C4/NC(=S)NC4=O)s3)ccc2C1=O  recombinant perforin (UniProt P10820)       6.00
3  O=C1NC(=S)N/C1=C/c1ccc(-c2ccc3c(c2)COC3=O)s1  recombinant perforin (UniProt P10820)       6.12
4  CC(C)N1Cc2cc(-c3ccc(/C=C4/NC(=S)NC4=O)s3)ccc2C1=O  recombinant perforin (UniProt P10820)       5.35
5  CNC(=O)c1ccc(-c2ccc(/C=C3/NC(=S)NC3=O)s2)cc1  recombinant perforin (UniProt P10820)       5.34
6  O=C1NC(=S)N/C1=C\c1cccc(-c2ccc3c(c2)CNC3=O)c1  recombinant perforin (UniProt P10820)       5.46
7  O=C1NC(=S)N/C1=C/c1cc(-c2ccc3c(c2)CNC3=O)cs1  recombinant perforin (UniProt P10820)       5.52

Input line: Fill in reported pIC50 for this entry: `O=C1NC(=S)N/C1=C/c1ccc(-c2ccc(O)cc2)s1`
Output line: 5.11
